target: GABAA receptor β3 subunit (Homo sapiens, UniProt P14867+P28472)
Construct: α1His-FLAG β3 receptor in HEK-293 cell membranes; adduct in TM3 peptide 280-313; with GABAA receptor α1 subunit (GABRA1)
assayRemarks: photoaffinity labeling with middle-down MS, competed by allopregnanolone; EC50 from [3H]muscimol binding enhancement (whole α[…]β[…] receptor)
quantityName: pEC50
Scale for pEC50: -log10 of concentration given in mol/L; no unit attached.

**Q:** For the compound shown here, C[C@]12CC[C@@H](O)CC1CCC1C2CC[C@@]2(C)C1CC[C@@H]2OCc1ccc(C2(C(F)(F)F)N=N2)cc1 (stereo partly shown) [KK200] , give the reported pEC50.
**A:** 6.27

All values here come from paper PMC6424464.
